# system under test: Recombinant human LTC4 synthase (Homo sapiens, UniProt Q16873)
# Construct: made in house; host or cells: Pichia pastoris ('Piccia pastoralis' [sic])
# Sequence (Q16873 whole entry): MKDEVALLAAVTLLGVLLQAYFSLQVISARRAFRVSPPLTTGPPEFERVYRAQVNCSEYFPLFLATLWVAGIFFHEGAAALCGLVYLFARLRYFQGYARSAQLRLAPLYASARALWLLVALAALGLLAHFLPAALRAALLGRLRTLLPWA
# procedure details: LTC4 synthase in vitro assay (LTA4 to LTC4, HTRF detection)
# Type: biochemical
# condition summary: 5 min; total concentration of title compound in the assay 10 μM
property label: inhibition at 10 µM (%)
Supply the numeric figure in %, leaving out any unit text.

## Task # inhibition at 10 µM lookup, item O=C(c1ccc(Oc2ccccc2)c(C(=O)O)c1)c1ccc(N(CC2CC2)c2ccc(Cl)cc2)cn1 [1:4]
## Result 100

## Task # inhibition at 10 µM lookup, item CN(c1ccc(Cl)cc1)c1ccc(C(=O)c2ccc(Oc3ccccc3)c(C(=O)O)c2)cn1 [6:1]
## Result 94

## Task # inhibition at 10 µM lookup, item O=C(c1ccc(-n2nncc2-c2ccccc2)c(C(=O)O)c1)c1ccc(N(CC2CC2)c2ccc(Cl)cc2)cn1 [17:3]
## Result 100

## Task # inhibition at 10 µM lookup, item CCN(c1ccc(C(=O)c2ccc(Oc3ccccc3)c(C(=O)O)c2)nc1)c1cccc(C(F)(F)F)c1 [1:12]
## Result 100

## Task # inhibition at 10 µM lookup, item CN(c1ccc(Cl)cc1)c1ccc(C(=O)c2ccc(-n3nncc3-c3ccccc3)c(C(=O)O)c2)nc1 [17:1]
## Result 98

## Task # inhibition at 10 µM lookup, item O=C(c1ccc(Oc2ccccc2)c(C(=O)O)c1)c1ccc(N(CC2CCC2)c2ccc(Cl)cc2)cn1 [1:5]
## Result 100

## Task # inhibition at 10 µM lookup, item CN(c1ccc(Cl)cc1)c1ccc(C(=O)c2ccc(Oc3cccnc3)c(C(=O)O)c2)nc1 [1:24]
## Result 86

## Task # inhibition at 10 µM lookup, item CN(c1ccc(Cl)cc1)c1cnc(C(=O)c2ccc(Oc3ccc(F)cc3)c(C(=O)O)c2)nc1 [10:1]
## Result 97

## Task # inhibition at 10 µM lookup, item CN(c1ccc(Cl)cc1)c1ccc(C(=O)c2ccc(NS(=O)(=O)c3ccc(Cl)cc3)c(C(=O)O)c2)nc1 [4:5]
## Result 100

## Task # inhibition at 10 µM lookup, item CN(c1ccc(Cl)cc1)c1ccc(C(=O)c2ccc(Oc3ccc(F)c(F)c3)c(C(=O)O)c2)cn1 [6:2]
## Result 96

## Task # inhibition at 10 µM lookup, item C=CCN(c1ccc(C(=O)c2ccc(Oc3ccccc3)c(C(=O)O)c2)nc1)c1ccc(F)c(F)c1 [1:21]
## Result 99

## Task # inhibition at 10 µM lookup, item C=CCN(c1ccc(Cl)cc1)c1ccc(C(=O)c2ccc(Oc3ccccc3)c(C(=O)O)c2)nc1 [1:8]
## Result 100

## Task # inhibition at 10 µM lookup, item CN(c1ccc(Cl)cc1)c1ccc(C(=O)c2ccc(Oc3ccccc3)c(C(=O)O)n2)cc1 [9:1]
## Result 94

## Task # inhibition at 10 µM lookup, item CCN(c1ccc(C(C)(C)C)cc1)c1ccc(C(=O)c2ccc(Oc3ccccc3)c(C(=O)O)c2)nc1 [1:22]
## Result 99

## Task # inhibition at 10 µM lookup, item CN(c1ccc(Cl)cc1)c1ccc(C(=O)c2ccc(Oc3ccc(F)c(F)c3)c(C(=O)O)n2)cc1 [9:2]
## Result 94

## Task # inhibition at 10 µM lookup, item CN(c1ccc(Cl)cc1)c1ccc(C(=O)c2cc(C(=O)O)c(Oc3ccccc3)cn2)cc1 [8:2]
## Result 99

## Task # inhibition at 10 µM lookup, item CN(c1ccc(Cl)cc1)c1ccc(C(=O)c2ccc(Oc3ccccc3[S+](C)[O-])c(C(=O)O)c2)nc1 (centres unmarked) [1:47]
## Result 88

## Task # inhibition at 10 µM lookup, item O=C(c1ccc(Oc2ccccc2)c(C(=O)O)c1)c1ccc(N(CC2CC2)c2ccc(F)c(F)c2)cn1 [1:19]
## Result 100

## Task # inhibition at 10 µM lookup, item CN(c1ccc(C(=O)c2ccc(Oc3ccccc3)c(C(=O)O)c2)nc1)c1cccc(C(F)(F)F)c1 [1:11]
## Result 99

## Task # inhibition at 10 µM lookup, item O=C(c1ccc(N(CC2CC2)c2ccc(Cl)cc2)cc1)c1cc(C(=O)O)c(Oc2ccccc2)cn1 [8:1]
## Result 99

## Task # inhibition at 10 µM lookup, item C=CCN(c1ccc(C(F)(F)F)cc1)c1ccc(C(=O)c2ccc(Oc3ccccc3)c(C(=O)O)c2)nc1 [1:13]
## Result 99

## Task # inhibition at 10 µM lookup, item CN(c1ccc(Cl)cc1)c1ccc(C(=O)c2ccc(NS(=O)(=O)c3cccs3)c(C(=O)O)c2)nc1 [4:3]
## Result 99

## Task # inhibition at 10 µM lookup, item CN(c1ccc(Cl)cc1)c1ccc(C(=O)c2ccc(Oc3ccccc3S(C)(=O)=O)c(C(=O)O)c2)nc1 [1:48]
## Result 95

## Task # inhibition at 10 µM lookup, item CN(c1ccc(Cl)cc1)c1ccc(C(=O)c2ccc(Oc3ccc(F)c(F)c3)c(C(=O)O)c2)nc1 [1:2]
## Result 98

## Task # inhibition at 10 µM lookup, item CN(c1ccc(Cl)cc1)c1ccc(C(=O)c2ccc(NS(=O)(=O)c3ccc(C(F)(F)F)cc3)c(C(=O)O)c2)nc1 [4:4]
## Result 100

## Task # inhibition at 10 µM lookup, item CSc1ccccc1Oc1ccc(C(=O)c2ccc(N(C)c3ccc(Cl)cc3)cn2)cc1C(=O)O [1:23]
## Result 100

----------
# system under test: Recombinant human LTC4 synthase (Homo sapiens)
# procedure details: LTC4 synthase in vitro assay (LTA4 to LTC4, HTRF detection)
pIC50: −log10 of the molar value.
Label 1 (yes) when pIC50 is at or above 7; anything below gets 0 (no).

## Task Would you say N#Cc1ccccc1Oc1ccccc1Oc1ccc(C(=O)c2ccc(N(CC3CC3)c3ccc(Cl)cc3)cn2)cc1C(=O)O [1:32] shows pIC50 at minimum 7?
## Result 1 (yes)

## Task Would you say O=C(c1ccc(-n2nncc2-c2ccc(F)cc2)c(C(=O)O)c1)c1ccc(N(CC2CC2)c2ccc(Cl)cc2)cn1 [17:5] shows pIC50 at minimum 7?
## Result 1 (yes)

## Task Would you say CN(c1ccc(Cl)cc1)c1ccc(C(=O)c2ccc(Oc3ccc(F)c(F)c3)c(C(=O)O)n2)cc1 [9:2] shows pIC50 at minimum 7?
## Result 0 (no)

## Task Would you say O=C(c1ccc(Oc2ccccc2)c(C(=O)O)c1)c1ccc(-c2ccc(Cl)cc2)cn1 [7:2] shows pIC50 at minimum 7?
## Result 0 (no)

## Task Would you say CN(c1ccc(Cl)cc1)c1ccc(C(=O)c2ccc(NC(=O)c3cc(Cl)ccc3O)c(C(=O)O)c2)nc1 [3:2] shows pIC50 at minimum 7?
## Result 1 (yes)

## Task Would you say CN(c1ccc(Cl)cc1)c1ccc(C(=O)c2ccc(C(=O)c3ccccc3C(F)(F)F)c(C(=O)O)c2)nc1 [5:29] shows pIC50 at minimum 7?
## Result 0 (no)

## Task Would you say O=C(c1ccc(Oc2ccc(F)cc2)c(C(=O)O)c1)c1ccc(N(CC2CC2)c2ccc(Cl)cc2)cn1 [1:27] shows pIC50 at minimum 7?
## Result 1 (yes)

## Task Would you say CN(c1ccc(Cl)cc1)c1ccc(C(=O)c2ccc(NS(=O)(=O)c3ccccc3)c(C(=O)O)c2)nc1 [4:1] shows pIC50 at minimum 7?
## Result 1 (yes)

## Task Would you say CN(c1ccc(Cl)cc1)c1ccc(C(=O)c2ccc(Oc3ccccc3)c(C(=O)O)c2)cn1 [6:1] shows pIC50 at minimum 7?
## Result 0 (no)

## Task Would you say CN(c1ccc(Cl)cc1)c1ccc(C(=O)c2ccc(Oc3ccc(F)c(F)c3)c(C(=O)O)c2)cn1 [6:2] shows pIC50 at minimum 7?
## Result 0 (no)

## Task Would you say C#CCN(c1ccc(C(=O)c2ccc(Oc3ccccc3F)c(C(=O)O)c2)nc1)c1ccc(Cl)cc1F [1:33] shows pIC50 at minimum 7?
## Result 0 (no)

----------
# system under test: Recombinant human LTC4 synthase (Homo sapiens, UniProt Q16873)
# Construct: made in house; host or cells: Pichia pastoris ('Piccia pastoralis' [sic])
# procedure details: LTC4 synthase in vitro assay (LTA4 to LTC4, HTRF detection)
# Type: biochemical
property label: pIC50
pIC50 field: float, defined as -log10 of concentration (mol/L).

## Task # pIC50 lookup, item COc1ccc(OC)c(C(=O)Nc2ccc(C(=O)c3ccc(N(C)c4ccc(Cl)cc4)cn3)cc2C(=O)O)c1
## Result 7.60

## Task # pIC50 lookup, item COc1ccc(Nc2ccc(C(=O)c3ccc(N(C)c4ccc(Cl)cc4)cn3)cc2C(=O)O)cc1
## Result 6.80

## Task # pIC50 lookup, item O=C(c1ccc(-n2nncc2-c2ccccc2)c(C(=O)O)c1)c1ccc(N(CC2CC2)c2ccc(Cl)cc2)cn1
## Result 7.35

## Task # pIC50 lookup, item CN(c1ccc(Cl)cc1)c1ccc(C(=O)c2ccc(NC(=O)c3ccccc3C#N)c(C(=O)O)c2)nc1
## Result 5.52

## Task # pIC50 lookup, item O=C(O)c1cc(C(=NO)c2ccc(N(CC3CC3)c3ccc(Cl)cc3)cn2)ccc1Oc1ccccc1 (mixture of isomers)
## Result 5.95

## Task # pIC50 lookup, item COc1ccccc1C(=O)Nc1ccc(C(=O)c2ccc(N(CC3CC3)c3ccc(Cl)cc3)cn2)cc1C(=O)O
## Result 7.40
